Target: CFTR ΔF508 (Homo sapiens, UniProt P13569, DEL508-508)
Construct: bronchial epithelial cells isolated from CF patients homozygous for the CFTR ΔF508 mutation; McGill University; Asterand; University of North Carolina hAEC-CF; host or cells: primary human bronchial epithelial cells from CF patients homozygous for ΔF508, differentiated at air-liquid interface
Sequence (P13569 with tags, fused parts or gaps DEL508-508): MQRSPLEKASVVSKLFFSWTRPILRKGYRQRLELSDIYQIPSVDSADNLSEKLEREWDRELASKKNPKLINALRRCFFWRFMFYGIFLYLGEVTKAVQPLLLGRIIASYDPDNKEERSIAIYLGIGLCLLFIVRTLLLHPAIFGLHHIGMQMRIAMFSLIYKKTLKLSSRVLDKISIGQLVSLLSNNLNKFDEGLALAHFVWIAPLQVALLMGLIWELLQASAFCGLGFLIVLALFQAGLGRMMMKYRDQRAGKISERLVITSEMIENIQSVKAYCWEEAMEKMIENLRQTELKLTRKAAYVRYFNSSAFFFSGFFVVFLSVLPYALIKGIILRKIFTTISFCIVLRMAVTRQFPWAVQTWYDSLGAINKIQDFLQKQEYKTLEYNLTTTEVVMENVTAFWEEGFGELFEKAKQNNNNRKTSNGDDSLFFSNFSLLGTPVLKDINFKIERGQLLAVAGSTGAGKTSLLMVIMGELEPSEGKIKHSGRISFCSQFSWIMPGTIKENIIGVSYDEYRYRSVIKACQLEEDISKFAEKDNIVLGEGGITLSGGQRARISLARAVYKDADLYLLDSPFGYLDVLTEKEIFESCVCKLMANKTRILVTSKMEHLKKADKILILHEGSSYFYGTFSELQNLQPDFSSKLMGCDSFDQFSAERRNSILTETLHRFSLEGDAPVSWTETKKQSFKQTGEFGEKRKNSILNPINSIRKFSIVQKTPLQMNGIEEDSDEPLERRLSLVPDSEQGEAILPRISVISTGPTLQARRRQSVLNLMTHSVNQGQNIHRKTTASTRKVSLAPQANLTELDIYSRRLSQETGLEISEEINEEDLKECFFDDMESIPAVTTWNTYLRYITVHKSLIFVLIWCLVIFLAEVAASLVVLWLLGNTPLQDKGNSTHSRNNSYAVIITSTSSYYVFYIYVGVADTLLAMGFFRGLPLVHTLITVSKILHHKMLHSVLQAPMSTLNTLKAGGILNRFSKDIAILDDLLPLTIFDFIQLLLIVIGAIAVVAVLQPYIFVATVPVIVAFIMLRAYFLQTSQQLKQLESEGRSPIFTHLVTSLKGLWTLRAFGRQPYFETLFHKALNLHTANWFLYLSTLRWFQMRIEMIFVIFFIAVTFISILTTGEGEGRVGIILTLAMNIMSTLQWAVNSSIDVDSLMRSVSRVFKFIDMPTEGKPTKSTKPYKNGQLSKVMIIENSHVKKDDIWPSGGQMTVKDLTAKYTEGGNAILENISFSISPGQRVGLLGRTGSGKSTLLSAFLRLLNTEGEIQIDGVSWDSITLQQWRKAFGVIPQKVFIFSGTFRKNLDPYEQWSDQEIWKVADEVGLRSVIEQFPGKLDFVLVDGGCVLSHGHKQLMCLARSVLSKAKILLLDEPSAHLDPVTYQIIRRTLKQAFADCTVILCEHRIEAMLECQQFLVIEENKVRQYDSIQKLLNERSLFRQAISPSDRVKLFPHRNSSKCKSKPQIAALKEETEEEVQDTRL
Assay: Chronic TECC assay, primary bronchial epithelial cells of CF patients homozygous for CFTR ΔF508 (corrector, co-corrector and potentiator)
Assay type: cell-based
Details: chronic TECC; test compound at 1 μM; AUC = full area under the curve upon forskolin stimulation
The entries below are paired with their reported % Activity at 1 μM (AUC**).
Give just the number in %; leave the unit off.

Some molecules with known % Activity at 1 μM (AUC**) results, for comparison:
Kindly indicate its recorded % Activity at 1 μM (AUC**). Item: CC(C1CCN(c2cc(C(=O)NS(=O)(=O)N(C)C)nc3c2c(C2CCC2)nn3-c2ccc(F)cc2)CC1)N1CCOCC1 (stereo not shown) 696.6667

Note down % Activity at 1 μM (AUC**) recorded for `CN(C)S(=O)(=O)NC(=O)c1cc(N2CCC(N3CCOCC3)CC2)c2c(C3CCC3)nn(-c3ccccc3)c2n1` 261.1621

State, in one line, measured % Activity at 1 μM (AUC**) of `COCC1CCN(c2cc(C(=O)NS(=O)(=O)CCCN3CCCC3)nc3c2c(C(C)C)nn3-c2ccc(F)cc2)CC1` 255.92

***
Indicate the recorded % Activity at 1 μM (AUC**) value for this molecule: `CN1CCN(c2ccc(-c3cc(C(=O)NS(=O)(=O)N(C)C)nc4c3c(C3CCC3)nn4C3CCCCC3)cn2)CC1` 239.0643

---

Target: ΔF508-CFTR (Homo sapiens, UniProt P13569, DEL508-508)
Construct: host or cells: CFBE41o-, doxycycline-inducible
Assay: CFTR cell surface levels using HRP-tagged ΔF508-CFTR expressing CFBE cells, in the presence of a co-corrector
Format: cell-based
Settings: HRP-tagged ΔF508-CFTR CFBE cells, in the presence of 3 μM co-corrector; read-out: EC50
EC50 values for the compounds below.
Field format: number, assumed nM, no unit text.

Guide cases for EC50, answers given:
For the compound CS(=O)(=O)NC(=O)c1cc(N2CCC(N3CCOCC3)CC2)c2c(C3CCC3)nn(-c3cccc(C(F)(F)F)c3)c2n1 [Compound 516] , give its measured EC50 value. 56.6

Look up EC50 of COCC1CCN(c2cc(C(=O)NS(=O)(=O)N3CCC(F)CC3)nc3c2c(C2CCC2)nn3-c2ccccc2)CC1 [Compound 399] and report it. 44.2

Query EC50 for COCC1CCN(c2cc(C(=O)NS(=O)(=O)c3cn[nH]c3)nc3c2c(C2CCC2)nn3-c2ccccc2)CC1 [Compound 253] 251

Hello, please tell me recorded EC50 for this one: CC(C)N1CCC2CN(c3cc(C(=O)NS(=O)(=O)N(C)C)nc4c3c(C3CCC3)nn4-c3ccc(F)cc3)CCC21 (stereo not shown) [Compound 625] 126

***
Give the reported value of EC50 for this record: COC1CCCN(c2cc(C(=O)NS(C)(=O)=O)nc3c2c(C(C)C)nn3-c2cccc(C)c2)C1 (stereo not shown) [Compound 162] 304

Name the recorded EC50 of the item CC(C)Oc1cc(-n2nc(C3CCC3)c3c(N4CCC(N5CCOCC5)CC4)cc(C(=O)NS(C)(=O)=O)nc32)ccn1 [Compound 530] in your answer. 23

Determine its reported EC50: CCS(=O)(=O)NC(=O)c1cc(-c2ccc(N(C)C)nc2)c2c(C(C)C)nn(C3CCCC3)c2n1 [Compound 56] 838

Give a short answer stating reported EC50 for CS(=O)(=O)NC(=O)c1cc(N2CCC(CN3CCOCC3)CC2)c2c(C3CCC3)nn(-c3ccc(F)cc3)c2n1 [Compound 410] . 82.4

Quick one: give measured EC50 for COC1CCN(c2cc(C(=O)NS(C)(=O)=O)nc3c2c(C(C)C)nn3-c2cccc(C)c2)CC1 [Compound 117] 200

---

In this section we review reported % Activity at 1 μM (AUC**) values for a set of compounds.
Target: CFTR ΔF508 (Homo sapiens, UniProt P13569, DEL508-508)
Construct: bronchial epithelial cells isolated from CF patients homozygous for the CFTR ΔF508 mutation; McGill University; Asterand; University of North Carolina hAEC-CF; host or cells: primary human bronchial epithelial cells from CF patients homozygous for ΔF508, differentiated at air-liquid interface
Assay: Chronic TECC assay, primary bronchial epithelial cells of CF patients homozygous for CFTR ΔF508 (corrector, co-corrector and potentiator)
Type: cell-based
Details: chronic TECC; test compound at 1 μM; AUC = full area under the curve upon forskolin stimulation
All answers are understood in %, so give the number only.

Name the recorded % Activity at 1 μM (AUC**) of the item CC(C)Oc1nn(C2CCCCC2)c2nc(C(=O)NS(C)(=O)=O)cc(-c3ccc(CN4CCN(C)CC4)cc3)c12 [Compound 441] in your answer. 236.6667

Please report % Activity at 1 μM (AUC**) for the following compound: COCC1CCN(c2cc(C(=O)NS(C)(=O)=O)nc3c2c(C2CCC2)nn3-c2ccnc(C3CCOCC3)c2)CC1 [Compound 473] 243.3333

// fetch % Activity at 1 μM (AUC**) given entry COCCN(CCOC)c1ccc(-c2cc(C(=O)NS(C)(=O)=O)nc3c2c(C2CCC2)nn3-c2ccccc2)cn1 [Compound 246] 301.36

Using the record for CC(=O)N1CCC(F)(COc2cc(C(=O)NS(C)(=O)=O)nc3c2c(C2CCC2)nn3-c2ccccc2)CC1 [Compound 274] , state its measured % Activity at 1 μM (AUC**). 224.99

Assign % Activity at 1 μM (AUC**) to the following record: CC(C)Oc1nn(C2CCCCC2)c2nc(C(=O)NS(C)(=O)=O)cc(-c3ccc(CN4CCOCC4)cc3)c12 [Compound 404] 433.3333

Respond only with % Activity at 1 μM (AUC**) recorded for CC(C)Oc1nn(C2CCCCC2)c2nc(C(=O)NS(=O)(=O)N(C)C)cc(-c3ccc(C(=O)N4CCN(C)CC4)cc3)c12 [Compound 423] 365

Specify measured % Activity at 1 μM (AUC**) for CC(C)c1nn(-c2ccc(F)cc2)c2nc(C(=O)NS(C)(=O)=O)cc(N3CCC4(CCO4)CC3)c12 [Compound 177] . 419.90

In one line, give reported % Activity at 1 μM (AUC**) of the entry CC(C1CCN(c2cc(C(=O)NS(C)(=O)=O)nc3c2c(C2CCC2)nn3-c2ccc(F)cc2)CC1)N1CCOCC1 (centres unmarked) [Compound 445] . 406.6667

Return % Activity at 1 μM (AUC**) for the following compound: CC(C)Oc1nn(C2CCCCC2)c2nc(C(=O)NS(C)(=O)=O)cc(-c3ccc(C(=O)N4CCN(C)CC4)cc3)c12 [Compound 422] 320

Kindly indicate its recorded % Activity at 1 μM (AUC**). Item: COCCS(=O)(=O)NC(=O)c1cc(N2CCC(CCN3CCOCC3)CC2)c2c(C3CCC3)nn(-c3ccc(F)cc3)c2n1 [Compound 415] 196.1812

More entries:
Supply % Activity at 1 μM (AUC**) value. Item: Cc1cc(N2CCN(c3cc(C(=O)NS(=O)(=O)N(C)C)nc4c3c(C3CCC3)nn4C3CCCCC3)CC2)ccn1 [Compound 535] 335.0294

Kindly indicate its recorded % Activity at 1 μM (AUC**). Item: CN(C)C[C@@H](F)C1CCN(c2cc(C(=O)NS(C)(=O)=O)nc3c2c(C2CCC2)nn3-c2ccccc2)CC1 [Compound 219] 298.20

Annotate the compound COc1cc(-n2nc(C3CCC3)c3c(N4CCC(N5CCOCC5)CC4)cc(C(=O)NS(C)(=O)=O)nc32)ccn1 [Compound 474] with its measured % Activity at 1 μM (AUC**). 226.6667

Please report % Activity at 1 μM (AUC**) for the following compound: COCCS(=O)(=O)NC(=O)c1cc(N2CCC(COC)CC2)c2c(C(C)C)nn(C3CCCCC3)c2n1 [Compound 251] 336.34

---

Biological target: ΔF508-CFTR (Homo sapiens, UniProt P13569, DEL508-508)
Construct: host or cells: CFBE41o-, doxycycline-inducible
Experiment: CFTR cell surface levels using HRP-tagged ΔF508-CFTR expressing CFBE cells, intrinsic corrector capacity
Type: cell-based
Details: HRP-tagged ΔF508-CFTR expressing CFBE41o- cells; compound alone (intrinsic corrector capacity); 20 hours at 33° C.; read-out: EC50
measurementType: EC50 (nM)
// note: answer is a bare numeric in nM

Determine from records and report EC50 for `CS(=O)(=O)NC(=O)c1cc(OCCN2CCS(=O)(=O)CC2)c2c(C3CCC3)nn(-c3ccccc3)c2n1` 3340

Dear colleague, please send me the reported EC50 for `CC(C)c1nn(-c2cccc(C(F)(F)F)c2)c2nc(C(=O)NS(C)(=O)=O)cc(-c3ccc(N(C)C4CCOCC4)nc3)c12` when you can. 413

// fetch EC50 given entry `Cc1nn(-c2cccc(Cl)c2)c2nc(C(=O)NS(C)(=O)=O)cc(-c3ccc(N4CCOCC4)cc3)c12` 1530

Report EC50, nothing else, for this compound: `COCC1CCN(c2cc(C(=O)N(C)S(C)(=O)=O)nc3c2c(C2CCC2)nn3-c2ccccc2)CC1` 281
